Please respond with reported IC50 for every item in the list.
# Test Target: hPAD4 (Homo sapiens, UniProt Q9UM07)
# Sequence (Q9UM07 whole entry): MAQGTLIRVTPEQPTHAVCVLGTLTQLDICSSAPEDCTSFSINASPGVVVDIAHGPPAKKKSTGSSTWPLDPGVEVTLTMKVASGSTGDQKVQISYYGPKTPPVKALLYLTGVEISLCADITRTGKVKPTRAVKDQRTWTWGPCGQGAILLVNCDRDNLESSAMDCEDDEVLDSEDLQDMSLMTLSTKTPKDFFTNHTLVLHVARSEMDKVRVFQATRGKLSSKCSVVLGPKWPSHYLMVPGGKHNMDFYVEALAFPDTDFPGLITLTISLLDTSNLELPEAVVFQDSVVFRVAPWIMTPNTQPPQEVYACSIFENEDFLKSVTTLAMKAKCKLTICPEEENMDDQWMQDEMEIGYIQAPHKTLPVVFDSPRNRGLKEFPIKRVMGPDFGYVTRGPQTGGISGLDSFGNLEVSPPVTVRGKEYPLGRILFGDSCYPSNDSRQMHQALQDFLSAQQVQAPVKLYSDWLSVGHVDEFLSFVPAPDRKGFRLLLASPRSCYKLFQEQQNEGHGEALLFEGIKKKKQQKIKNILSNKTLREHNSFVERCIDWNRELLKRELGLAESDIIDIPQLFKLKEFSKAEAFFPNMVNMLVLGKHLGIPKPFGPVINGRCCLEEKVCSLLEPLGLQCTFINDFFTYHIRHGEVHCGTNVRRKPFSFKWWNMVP
# Method: hPAD4 RFMS (RapidFire mass spectrometry) PAD4 inhibition assay;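 further: grade E means pIC50 at most 4 and F means pIC50 4.0 to 5.0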
# Assay type: biochemical
# Run Parameters: hPAD4 enzyme, RFMS readout; pIC50=−log(IC50); read-out: hPAD4 RFMS pIC50 (converted)

Here are 10 molecules together with their reported answers.
## Input Request - read-out IC50 | tested on hPAD4 (Homo sapiens, UniProt Q9UM07) | molecule COCCn1c(-c2cc3cccnc3n2CC2CC2)nc2cc(C(=O)N3C[C@H]4CC[C@@H]3[C@@H]4N)cc(OC)c21 [Compound I-178]
## Output < 1 µM

## Input Request - read-out IC50 | tested on hPAD4 (Homo sapiens, UniProt Q9UM07) | molecule COc1cc(C(=O)N2C[C@H]3CCC2[C@H]3N)cc2nc(-c3cc4ccc(/C=C/CCc5ccccc5)cc4n3CC3CC3)n(C)c12 [Compound I-369]
## Output < 1 µM

## Input Request - read-out IC50 | tested on hPAD4 (Homo sapiens, UniProt Q9UM07) | molecule CCn1c(-c2nc3cc(C(=O)N4CCC[C@@H](N)C4)c(F)cc3n2C)cc2cccnc21 [Compound I-171]
## Output 1 to 10 µM

## Input Request - read-out IC50 | tested on hPAD4 (Homo sapiens, UniProt Q9UM07) | molecule Cn1c(-c2cc3cccnc3n2CC2CC2)nc2cc(C(=O)N3C4CCC(N)C3CC4)ccc21 (centres unmarked) [Compound I-63]
## Output 10 to 100 µM

## Input Request - read-out IC50 | tested on hPAD4 (Homo sapiens, UniProt Q9UM07) | molecule Cn1c(-c2cc3cccnc3n2CC2CC2)nc2cc(C(=O)N3CC[C@@H]4CCN[C@@H]4C3)ccc21 [Compound I-18]
## Output 10 to 100 µM

## Input Request - read-out IC50 | tested on hPAD4 (Homo sapiens, UniProt Q9UM07) | molecule Cn1c(-c2cc3cccnc3n2CC2CC2)nc2cc(C(=O)N3CCC[C@@H]4NCC[C@@H]43)ccc21 [Compound I-61]
## Output > 100 µM

## Input Request - read-out IC50 | tested on hPAD4 (Homo sapiens, UniProt Q9UM07) | molecule CCn1c(-c2nc3cc(C(=O)N4C[C@H]5CC[C@@H]4[C@@H]5N)cc(OC)c3n2C[C@H]2C[C@@](C)(OC)C2)cc2ccc(OC)nc21 [Compound I-206]
## Output < 1 µM

## Input Request - read-out IC50 | tested on hPAD4 (Homo sapiens, UniProt Q9UM07) | molecule COc1cc(C(=O)N2C[C@H]3CC[C@@H]2[C@@H]3N)cc2nc(-c3cc4cccnc4n3CC3CC3)n(CC[S+](C)[O-])c12 (some centres unmarked) [Compound I-213]
## Output < 1 µM

## Input Request - read-out IC50 | tested on hPAD4 (Homo sapiens, UniProt Q9UM07) | molecule COCCn1c(-c2nc3cc(C(=O)N4CCC[C@@H](N)C4)cc(OC)c3n2C)cc2cccnc21 [Compound I-137]
## Output 1 to 10 µM

## Input Request - read-out IC50 | tested on hPAD4 (Homo sapiens, UniProt Q9UM07) | molecule CCCn1c(-c2nc3cc(C(=O)N4C[C@H]5CC[C@@H]4[C@@H]5N)cc(OC)c3n2C)cc2cccnc21 [Compound I-154]
## Output < 1 µM

Please look at the items below and tell me IC50 for each one, in order.
1. COc1cc(C(=O)N2CC3CCC2C(N)C3)cc2nc(-c3cc4cccnc4n3CC3CC3)n(C)c12 (centres unmarked) [Compound I-129]
2. Cn1c(-c2cc3cccnc3n2CC2CC2)nc2cc(C(=O)N3CCC(F)C(N)C3)ccc21 (centres unmarked) [Compound I-49]

## Output
["1 to 10 µM", "1 to 10 µM"]

Please look at the items below and tell me IC50 for each one, in order.
1. CCn1c(-c2nc3cc(C(=O)N4CC[C@H]5CCN[C@H]5C4)cc(OC)c3n2C)cc2cccnc21 (single isomer, unassigned) [Compound I-14]
2. COc1ccc2cc(-c3nc4cc(C(=O)N5C[C@H]6CC[C@@H]5[C@@H]6N)cc(F)c4n3C)n(CC3CC3)c2n1 [Compound I-230]

## Output
1. 10 to 100 µM
2. < 1 µM
